From: PubChem BioAssay (NCI)

Tested on: SNB-75 CNS
Test: NCI tumour cell line growth inhibition, 48 h

[
  {
    "compound": "COC1OC(=O)[C@H]2O[N+]([O-])=C(C)[C@@H]12 (stereo partly drawn)",
    "TGI": "> 100 µM"
  },
  {
    "compound": "Cc1sc2nc3n(c(=O)c2c1C)N=CN(c1ccccc1)C3",
    "TGI": "> 100 µM"
  },
  {
    "compound": "C=CCN(CC=C)Cn1c(=S)sc2ccccc21",
    "TGI": "> 100 µM"
  }
]

---

Tested on: A549 NSCLC
Assay: NCI tumour cell line growth inhibition, 48 h
outcome_measure: TGI

[
  {
    "molecule": "Cc1c(Cl)cccc1NC(=O)C(=O)C1C(=O)CC(C)(C)CC1=O",
    "outcome_measure": "TGI",
    "result": "> 100 µM"
  },
  {
    "molecule": "C#Cc1cnc(=O)n(C2CC(O)C(CO)O2)c1 (configuration not stated)",
    "outcome_measure": "TGI",
    "result": "> 100 µM"
  },
  {
    "molecule": "CCCCCCCCCC[C@@H](O)[C@H]1CC[C@H]([C@H]2CC[C@H]([C@H](O)CCCCCCCCCC[C@@H]3CC(CC(C)=O)C(=O)O3)O2)O1 (some centres not stated)",
    "outcome_measure": "TGI",
    "result": "> 50 µM"
  },
  {
    "molecule": "Cc1ccc(-c2cc(N)n(-c3nc4c([nH]3)c(=O)n(C)c(=O)n4C)n2)cc1",
    "outcome_measure": "TGI",
    "result": "> 100 µM"
  },
  {
    "molecule": "O=c1[nH]cnc2c(C3OC(CO)C(O)C3O)c[nH]c12 (configuration not stated)",
    "outcome_measure": "TGI",
    "result": "> 100 µM"
  },
  {
    "molecule": "NC(CO)Cc1cnc[nH]1 (configuration not stated)",
    "outcome_measure": "TGI",
    "result": "> 100 µM"
  },
  {
    "molecule": "Cc1ccccc1C1OC1C(=O)c1ccccc1N (configuration not stated)",
    "outcome_measure": "TGI",
    "result": "> 100 µM"
  },
  {
    "molecule": "CCc1c2c(nc3cc4c(cc13)OCO4)-c1cc3c(c(=O)n1C2)COC(=O)[C@]3(O)CC",
    "outcome_measure": "TGI",
    "result": "2.08 µM"
  },
  {
    "molecule": "COc1ccc2nc(-c3ccc(OCc4ccccc4)cc3)ccc2c1",
    "outcome_measure": "TGI",
    "result": "> 100 µM"
  },
  {
    "molecule": "CN=C(N)N/N=C(\\c1ccccc1)c1ccc(Br)cc1",
    "outcome_measure": "TGI",
    "result": "10.1 µM"
  },
  {
    "molecule": "Cc1cc(=O)cc2sc3c(C)cccc3nc1-2",
    "outcome_measure": "TGI",
    "result": "> 100 µM"
  },
  {
    "molecule": "Cc1cc2c(c(C(=O)NCCC(=O)O)c1)Oc1c(cc(C)cc1C(=O)NCCC(=O)O)S2",
    "outcome_measure": "TGI",
    "result": "> 100 µM"
  },
  {
    "molecule": "COc1cc(COC(=O)N[C@H](C(=O)O)C(C)(C)C)c([N+](=O)[O-])cc1OC",
    "outcome_measure": "TGI",
    "result": "> 100 µM"
  },
  {
    "molecule": "CCOC(=O)c1sc2nc(SC)nc3c2c1N=CN3c1ccc(Br)cc1",
    "outcome_measure": "TGI",
    "result": "> 100 µM"
  },
  {
    "molecule": "CCOP(=O)(OCC)[C@H](O)c1ccsc1",
    "outcome_measure": "TGI",
    "result": "> 100 µM"
  },
  {
    "molecule": "CCOC(=O)C1=C(C)Nc2ccccc2S1",
    "outcome_measure": "TGI",
    "result": "> 100 µM"
  },
  {
    "molecule": "Cc1ccc2c(c1C)CC1(Cc3c(ccc4c3CCC4)C1=O)C2=O (configuration not stated)",
    "outcome_measure": "TGI",
    "result": "> 100 µM"
  }
]
